assay: soluble fraction after stress (log2 fold change); higher = more stays soluble; pooled small domains, quantitative proteomics; conditions: stress: 75 degC;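 note: 20 min heating vs room temperature control held 20 min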
The recorded soluble fraction (log2) of each item maps onto one of these classes: one: < -0.8; two: ≥ -0.8 and < -0.03; three: ≥ -0.03

[
  {
    "Record Sequence": "HMGSREVPFSDFISKVESGSVLEVVLRGRQVEGLTDANERFQTQIPNYPALFEILERNQVRTRVEPT",
    "Cat": "two"
  },
  {
    "Record Sequence": "HMGEKFTFGQIAKAKAYAKTYANDMTSAVKNIEAIATGLSKHPEVADTLKKANENQELNRITKLAG",
    "Cat": "three"
  },
  {
    "Record Sequence": "HMSGKGEFDQLLRSGEYVQAFQRANANGNVTLRRQQLLNLARHQAASGVGSGAIESLSTIQRI",
    "Cat": "three"
  },
  {
    "Record Sequence": "HMSDIISEIESQVMFKLATYEITNATEKMIEALINSEINDRRTLGFPIPNEQGRIFLVRSIQNKLAV",
    "Cat": "one"
  },
  {
    "Record Sequence": "HMVDTEVFSRLLRKVLAGDVTSAIRILEELIVGGRELSQFVGDFTWYMRNLLLVKTSDNPEEA",
    "Cat": "two"
  },
  {
    "Record Sequence": "HMFTYDLSERELTIIELVAKGLNNKELADTLFLSEGTIRNYLSTLLNKLDLRDRTQLAIFYYQHL",
    "Cat": "one"
  },
  {
    "Record Sequence": "HMTGIRVYPNPTSSELRFSVATDAALYDATGARLRVVRGSDMMDIRDLASGTYYVRFADGSTQSVVVT",
    "Cat": "two"
  },
  {
    "Record Sequence": "HMNEMEWVAKLIDQLPERERMILQLREIEQYEFDQIASLMEIPEGTVRVYLSRIRKKIKKQFIEIQSH",
    "Cat": "three"
  },
  {
    "Record Sequence": "HMGPVRRDLEINGRMVPLTIREHARATRITLRIEPGGQALRLTIPPGLPTREVDSFLTRHHGWLMTKLAHI",
    "Cat": "one"
  },
  {
    "Record Sequence": "HMSGKWKIRILWYIAEYEVQRFGELRRRLGDITQSTLTEQLRELEQDGFVSRYVYQEVPSKVEYSLTE",
    "Cat": "three"
  },
  {
    "Record Sequence": "HMTEKEEERTEDLNYYRLNLISMLKSSYPEYLDDEEFISNRSQEAAEAFEDAVRSGSNYLDASAESNRTLY",
    "Cat": "two"
  },
  {
    "Record Sequence": "HMKVKIFNGMKLVTNSTGLTVDGKPAALDESNADAKTYSQGLYVFIVYQSGKIAVMQDGKFLGYA",
    "Cat": "one"
  },
  {
    "Record Sequence": "HMYNTDAMGVRIGELRRAKGLTQEAFAKTLGISAQAVSKWETGLGFPDISLLPMIAETLGTKIETLFGAE",
    "Cat": "two"
  },
  {
    "Record Sequence": "HMKGVPGIGDYVKLSGGSTVGKVLSISGKKAEVAFGLLRTTTELSKLEKVRKPKELLQSGVSS",
    "Cat": "two"
  },
  {
    "Record Sequence": "HMEYKNYYDSPVGRLELLSDGVSLTAVLFENQQGDGTREENTSLAIFKEATQWLDAYFKGDNPEITIPL",
    "Cat": "three"
  },
  {
    "Record Sequence": "HMVQIQDIAFSEFLNELEKGNILDVNIKGDLINGNMLDGKKFKTYAPYDPSLVEKLSKQNVTINVEPVN",
    "Cat": "three"
  }
]

* * *

test: soluble fraction after stress (log2 fold change); higher = more stays soluble; pooled small domains, quantitative proteomics; conditions: stress: 75 degC
Label Y when soluble fraction (log2) >= -0.5; otherwise N.

[
  {
    "Record Sequence": "HMQGVTVPDLTRVSLEEAVATISSLGLRYEISDRRSNAAFPANYVLDQAPGANTIVKPNRKVYLTVNAA",
    "Cat": "Y"
  },
  {
    "Record Sequence": "HMLKPVVLLGARGLTDAVEKEVERALDEHGLIKIHVPSDDREERDEIYTTLADKLNAARIQAIGKMLVLW",
    "Cat": "Y"
  },
  {
    "Record Sequence": "HMGAFAIHTASELSAGMRIRHERFGPGVITGIDTANPASGARIQVDFDNGTSKTLLLSYAKFQI",
    "Cat": "N"
  },
  {
    "Record Sequence": "HMTTGTVKWFNDAKGFGFITPDDRSVDVFVHYSNIVGQSGRRTLMEGERVEYEAIEGPKGPQATDVARA",
    "Cat": "Y"
  },
  {
    "Record Sequence": "HMRAPIGFRISNRRKSLKISQVALARLVGISPSYLNLIENNKRDVGGALLQRVALHLNIDIDDL",
    "Cat": "N"
  },
  {
    "Record Sequence": "HMQMRKENKILVTDIGEIDEVKVIFDDDNKPYLYSYNGEDEFYRPDETYKFFDNKEQAEEYVREN",
    "Cat": "Y"
  },
  {
    "Record Sequence": "HMSSQLETTFATLIGKRVSIRLHDPEGGFRDILGHLESPYSLRNRHGNLIEFAHDQIFLWREVI",
    "Cat": "N"
  },
  {
    "Record Sequence": "HMIAALEGKQAMVLDQVSLHHGQVKLGGEVWTARPLNDQDVYEPGDRVTVMRIDGATAVVWRN",
    "Cat": "Y"
  },
  {
    "Record Sequence": "HMTPEPVREALTFQEGRVFALAAKNMTNAEIAQSLSLKLKTVENYMSIIYQKLALKNRYELLVYARKSGV",
    "Cat": "N"
  },
  {
    "Record Sequence": "HMPLRPNQRQFIHLMVYQGLDRNEAYAQANNKVLTEENYESIRTAAAKTFYTPHVNNYYHALMEEIRDRE",
    "Cat": "Y"
  },
  {
    "Record Sequence": "HMFIKVEVPDLTGMTLTEVRKALEEKNLKMGDIRPAGQTSLVAKVINQSPQAKMVVDEYSEVSIQFEE",
    "Cat": "N"
  },
  {
    "Record Sequence": "HMSYKDIKEASDTGTYRDEENNIDVKWQKLFNGHNEYFDIEAYRDGERVEINNQQADRYIYLIKQEMD",
    "Cat": "Y"
  },
  {
    "Record Sequence": "HMGITRQQALQQINQSASPKKILNASLGKRGSEFVWDIGYLSKSGKLNYVTYSFRSGEQLNAIKN",
    "Cat": "N"
  },
  {
    "Record Sequence": "HMDLKENQHILQISNKGVQMGNVLKDLIIQTLNITNGNQIKAAKLLAISRAKLRYRIEQLGINISGKNI",
    "Cat": "Y"
  },
  {
    "Record Sequence": "HMAPVLTRREHEVLHLLTDGLDNRTIARNLFISEATVKFHLHNIMGKFGVHRRAALVSTALRG",
    "Cat": "N"
  },
  {
    "Record Sequence": "HMHLLGASIAAYRKKAGMTQEDLGRALFVSGQAVSRWERGGTPDSDMLPKIADVLGISLDTLFGRS",
    "Cat": "N"
  },
  {
    "Record Sequence": "HMQVVVEKSKEKVIISGNQYYIHIVKKGETAFSIAKAYGITVDELVKNNPSAATVLKEGQALRIPVVE",
    "Cat": "Y"
  }
]

* * *

test: soluble fraction after stress (log2 fold change); higher = more stays soluble; pooled small domains, quantitative proteomics; settings: stress: 75 degC

[
  {
    "Record Sequence": "HMEATEFYLEDLTGQMYNDVVNDEKYAGKIVFEKEEVQSDGEEAIGQILNQRPAGNMNVRIGTTVTLVVNA",
    "soluble fraction (log2)": 0.242
  },
  {
    "Record Sequence": "HMAGDDEIEKIAQDILAAWPDKVAAYQAGNKGLMGLFMGELMKKSQGKANPKVASGIIQKLLD",
    "soluble fraction (log2)": 0.0201
  },
  {
    "Record Sequence": "HMGDLKALMPGKVTQVLVSGGQKVKVGEPVLLMESMKMEQTIVATKDGDISEILVSEGDTVEVGKIMIKI",
    "soluble fraction (log2)": -0.00398
  },
  {
    "Record Sequence": "HMPKKLIWERTTSKLQLYITQDRYELKTPLMTIPFTSKSKMMVYLQQRYHLDMQEYRQIYDAG",
    "soluble fraction (log2)": -2.28
  },
  {
    "Record Sequence": "HMDGIPVPDVKGTVEAEATATLKNSGFEVTKTQDFSDTVEAGKVISQNPAGGSSAASGSSVTLVISQGPN",
    "soluble fraction (log2)": -0.0786
  },
  {
    "Record Sequence": "HMHNISQTGRRIAGMTQERWAEALDISVESVRLYESGRGMPSDDVATRMVEVSGAPVLGYWH",
    "soluble fraction (log2)": -0.458
  },
  {
    "Record Sequence": "HMYNNGYVNSDRVNFRKGASTNSDIYKVLDKNTSVTILDYEGDWSKVKINDTVGYVYTKYITAG",
    "soluble fraction (log2)": -0.368
  },
  {
    "Record Sequence": "HMLAGVDTLADRELEVFQMLGRGKSTKEIAQVLNLGESTVETYRARIKEKLQLRSAAELYLRAGQWVRDHG",
    "soluble fraction (log2)": -1.09
  }
]
